Molecular target: biotinylated GTP-loaded KRAS (recombinant human KRAS loaded with GppCp) (human, UniProt P01116 1-189)
Sequence (P01116 whole entry): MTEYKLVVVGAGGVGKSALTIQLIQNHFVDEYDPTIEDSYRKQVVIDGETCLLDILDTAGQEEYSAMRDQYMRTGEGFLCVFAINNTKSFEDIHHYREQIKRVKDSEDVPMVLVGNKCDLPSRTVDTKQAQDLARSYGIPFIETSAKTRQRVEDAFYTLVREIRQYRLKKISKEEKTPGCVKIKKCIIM
Test: BLI
measured.parameter: Kd (µM)
# output: bare number, implied unit µM

Below, each entry is followed by its recorded Kd result.
DVKVFSEDGTSKVVE [peptide_(GRB10)] | 78
VVNVGGKTVK [peptide_(RAB4B)] | 84
IVRVFLPNKQRTVVP [peptide_(BRAF)] | 150

For the binder VIKVYSEDETSRALD [peptide_(GRB14)] , what Kd is on record?
87
